system under test: HSPD1 (Homo sapiens, UniProt P10809)
Construct: endogenous in cells
Sequence (P10809 27-573): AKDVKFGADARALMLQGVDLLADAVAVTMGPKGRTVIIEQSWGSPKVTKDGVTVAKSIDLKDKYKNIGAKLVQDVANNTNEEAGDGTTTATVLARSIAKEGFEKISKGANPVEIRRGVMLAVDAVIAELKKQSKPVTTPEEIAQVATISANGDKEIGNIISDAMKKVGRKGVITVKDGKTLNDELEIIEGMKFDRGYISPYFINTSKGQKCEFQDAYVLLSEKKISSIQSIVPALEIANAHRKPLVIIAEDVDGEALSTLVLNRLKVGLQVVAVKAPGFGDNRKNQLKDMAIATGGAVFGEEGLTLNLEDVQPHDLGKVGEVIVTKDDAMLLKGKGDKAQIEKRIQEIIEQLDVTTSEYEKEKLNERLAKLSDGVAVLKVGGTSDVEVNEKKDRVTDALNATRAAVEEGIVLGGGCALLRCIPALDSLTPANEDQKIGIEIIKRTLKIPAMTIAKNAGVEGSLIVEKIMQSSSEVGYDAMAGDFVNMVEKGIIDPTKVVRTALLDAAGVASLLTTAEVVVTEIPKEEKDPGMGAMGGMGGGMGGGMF
assay summary: Competition binding assay in cell lysate, affinity matrix, MS
condition notes: HSPD1; Molt-4 cell lysate; read-out: IC50
pIC50: −log10 of the molar value.
measured quantity: pIC50

In [3]: df
Out[3]:
                                   compound  numeric_readout
0  CC(/C=C/C(=O)NO)=C\[C@@H](C)C(=O)c1ccc(N(C)C)cc1 [Trichostatin A]             5.52

###

System: MBD3
assay summary: Competition binding assay in cell lysate, affinity matrix, MS (Mi-2/NuRD interactor)
condition notes: Molt-4 cell lysate
measured quantity: IC50 (µM)

>>> print(df.to_string())
                                   molecule  numeric_readout
0  CC(/C=C/C(=O)NO)=C\[C@@H](C)C(=O)c1ccc(N(C)C)cc1 [Trichostatin A]             0.04

###

Test system: CoREST complex
assay summary: Chemoproteomic binding profiling, K562 cell extract, SAHA/ITF2357 probe matrix (Kd app)
Set-up: species or system human
condition notes: protein GSE1; CoREST complex; read-out: Kd^app GSE1
pKd: −log10 of the molar value.
measured quantity: pKd

>>> df
                                   molecule  measured_quantity  relation_operator  numeric_readout
0  O=C(/C=C/c1ccc(CN(CCO)CCc2c[nH]c3ccccc23)cc1)NO [dacinostat]                pKd                  =             8.00
1  COc1ccc(Cn2ccc3ccc(C(=O)NO)cc32)cc1 [PCI-34051]                pKd                  <             4.22
2  CCCC(CCC)C(=O)O [valproate, valproic acid]                pKd                  =             3.65
3  Nc1ccccc1NC(=O)CCCCCCC(=O)Nc1ccccc1 [BML-210]                pKd                  =             4.29
4       CCCCOc1ccc(CC(=O)NO)cc1 [bufexamac]                pKd                  <             4.22
5  Cn1cc(C(=O)Cc2ccccc2)cc1C=CC(=O)NO [MC-1293]                pKd                  <             5.00
6  CN(C)Cc1c(C(=O)NCCOc2ccc(C(=O)NO)cc2)oc2ccccc12 [PCI-24781]                pKd                  =             7.70

###

System: CoREST complex
assay summary: Chemoproteomic binding profiling, K562 cell extract, SAHA/ITF2357 probe matrix (Kd app)
Design: species or system human
condition notes: read-out: Kd^app HMG20A
pKd: −log10 of the molar value.
measured quantity: pKd

>>> print(df.to_string())
                                smiles_code  system_under_test  relation_operator  numeric_readout
0  Nc1ccccc1NC(=O)c1ccc(CNC(=O)OCc2cccnc2)cc1     CoREST complex                  <             3.52
1          CC(=O)Nc1ccc(C(=O)Nc2ccccc2N)cc1     CoREST complex                  =             3.86
2  Nc1ccccc1NC(=O)c1ccc(CNc2nccc(-c3cccnc3)n2)cc1     CoREST complex                  =             4.28
